Measured values drawn from PubChem BioAssay AID1159580 for this set.

- experiment: chemical genetic growth profiling, strain panel (AID 1159580);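 note: tested at 20 µM; growth read once vehicle control cultures reached saturation at 30 °C; 1 = growth at the plate median or of vehicle wells; lower values mean less growth of the strain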
- test_parameters: S. cerevisiae deletion strains, growth OD, locus YOR119C, strain RIO1
Among all 5,500 compounds or so, about 2,000 (36%) were called active. Another 18% or so got no clear call; they are omitted. Cut-off read from the data, not from the text of the source: active = normalized growth mostly below about 0.91 (no sharp cut-off); inconclusive = no clear call, values can overlap the other calls; inactive = mostly above about 0.92. The list shows a part of the results.
Labels: class 1 for active, class 0 for inactive

[
  {
    "mol": "Cc1c(S(=O)(=O)c2ccc(Cl)cc2)csc1C(=O)NNc1cccc(Cl)c1",
    "class_assignment": "class 0"
  },
  {
    "mol": "O=C1/C(=C/c2cccs2)COc2ccccc21",
    "class_assignment": "class 0"
  },
  {
    "mol": "COc1ccc(C(=O)NCc2csc3ccc(Cl)cc23)cc1OC",
    "class_assignment": "class 0"
  },
  {
    "mol": "Cc1onc(-c2ccccc2)c1C(=O)Sc1ccc(C(F)(F)F)cn1",
    "class_assignment": "class 1"
  },
  {
    "mol": "O=C(CCn1c(=O)oc2ccccc21)Sc1ccc(C(F)(F)F)cc1",
    "class_assignment": "class 0"
  }
]

====

- experiment: chemical genetic growth profiling, strain panel (AID 1159580);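 note: tested at 20 µM; growth read once vehicle control cultures reached saturation at 30 °C; 1 = growth at the plate median or of vehicle wells; lower values mean less growth of the strain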
- test_parameters: S. cerevisiae deletion strains, growth OD, locus YPL055C, strain LGE1, active compounds read low
Among all 5,500 compounds or so, about 2,000 (36%) were called active. Roughly 18% stayed inconclusive and do not appear here. Some of the results follow.
endpoint_name: normalized growth

[
  {
    "molecule": "CC1CCC2(OC1)OC1CC3C4CCC5C[C@@H](O)CCC5(C)C4=CCC3(C)C1[C@@H]2C (stereo partly specified)",
    "endpoint_name": "normalized growth",
    "experimental_result": 1.02
  },
  {
    "molecule": "CC(=O)O[C@H]1CC[C@]2(C)C3C(=O)[C@@H](OC(C)=O)[C@@]4(C)C(C[C@@H]5O[C@]6(CCC(C)CO6)[C@@H](C)[C@@H]54)C3CC[C@H]2C1 (stereo partly specified)",
    "endpoint_name": "normalized growth",
    "experimental_result": 1.02
  },
  {
    "molecule": "CS(=N)(=O)CC[C@H](N)C(=O)O (stereo partly specified)",
    "endpoint_name": "normalized growth",
    "experimental_result": 1
  },
  {
    "molecule": "COc1ccc(CCN(C)CCc2ccc(OC)c(OC)c2)cc1OC",
    "endpoint_name": "normalized growth",
    "experimental_result": 0.985
  },
  {
    "molecule": "COc1cc([C@H]2Oc3cc([C@H]4Oc5cc(O)cc(O)c5C(=O)[C@@H]4O)ccc3O[C@@H]2CO)ccc1O",
    "endpoint_name": "normalized growth",
    "experimental_result": 0.995
  },
  {
    "molecule": "C#CC(N)CCC(=O)O (stereo unspecified)",
    "endpoint_name": "normalized growth",
    "experimental_result": 0.989
  },
  {
    "molecule": "N[C@@H](Cc1ccc(F)cc1)C(=O)O",
    "endpoint_name": "normalized growth",
    "experimental_result": 0.99
  },
  {
    "molecule": "CN1CCN(C2=Nc3ccccc3Oc3ccc(Cl)cc32)CC1",
    "endpoint_name": "normalized growth",
    "experimental_result": 1.02
  },
  {
    "molecule": "COc1ccc(CCNC(=S)NCCc2ccc(OC)c(OC)c2)cc1OC",
    "endpoint_name": "normalized growth",
    "experimental_result": 0.982
  },
  {
    "molecule": "Cc1cc(CN2CC(C)OC(C)C2)cc(C)c1O (stereo unspecified)",
    "endpoint_name": "normalized growth",
    "experimental_result": 1.01
  },
  {
    "molecule": "NC(Cc1ccc(F)cc1)C(=O)O (stereo unspecified)",
    "endpoint_name": "normalized growth",
    "experimental_result": 1.02
  },
  {
    "molecule": "C/C(=N/Nc1c(Cl)cc(Cl)cc1Cl)c1cc(F)ccc1OC(=O)c1ccccc1F",
    "endpoint_name": "normalized growth",
    "experimental_result": 0.981
  },
  {
    "molecule": "CC12CC3CC(C)(C1)CC(N)(C3)C2",
    "endpoint_name": "normalized growth",
    "experimental_result": 1
  },
  {
    "molecule": "Nc1ccn(C2O[C@H](CO)[C@@H](O)[C@H]2O)c(=O)n1 (stereo partly specified)",
    "endpoint_name": "normalized growth",
    "experimental_result": 1.01
  },
  {
    "molecule": "Clc1ccc2c(c1)C(N1CCNCC1)=Nc1ccccc1O2",
    "endpoint_name": "normalized growth",
    "experimental_result": 0.989
  },
  {
    "molecule": "C[C@H]1C2Cc3ccc(O)cc3[C@]1(C)CCN2CC1CC1",
    "endpoint_name": "normalized growth",
    "experimental_result": 1.02
  }
]
